assayed system: Glutamate NMDA receptor
assay comment: Antagonist activity at NMDA receptor in primary culture of rat cerebellar granule neurons assessed as inhibition of NMDA-induced intracellular calcium level by fluorescence spectrophotometric analysis
experimental endpoint: IC50 (µM)

Enquiry: What does the record list as IC50 for NC12CC3CC(F)(CC(C1)c1ccccc13)C2 ?
Return: 1.93

A. CN(C)C12CC3CC(C1)c1ccccc1C(C3)C2
B. CN(C)C12CC3CC(F)(CC(C1)c1ccccc13)C2
C. CN(C)C12CC3CC(O)(CC(C1)c1ccccc13)C2
Enquiry: Ascending sort, IC50. Reply with the item labels sorted in the order that was asked for.
Return: A, B, C
(A: 2.3 µM, B: 16.5 µM, C: 71.1 µM)

====

assayed system: Glutamate NMDA receptor
assay comment: Antagonist activity at NMDA receptor in primary culture of rat cerebellar granule neurons assessed as inhibition of NMDA-induced intracellular calcium level by fluorescence spectrophotometric analysis
experimental endpoint: IC50 (µM)

Enquiry: Recorded IC50 for NC12CC3CC(C1)c1ccccc1C(C3)C2 with Glutamate NMDA receptor, please?
Return: 0.7

a. NC12CC3CC(O)(CC(C1)c1ccccc13)C2
b. COC12CC3CC(N)(CC(C1)c1ccccc13)C2
Enquiry: Among a and b , which shows a numerically higher IC50 result? To answer, give the label that identifies your chosen option.
Return: b
